Source: patent US20210070748A1

EXPERIMENTAL_TARGET: LCK (Homo sapiens, UniProt P06239)
Sequence (P06239 whole entry): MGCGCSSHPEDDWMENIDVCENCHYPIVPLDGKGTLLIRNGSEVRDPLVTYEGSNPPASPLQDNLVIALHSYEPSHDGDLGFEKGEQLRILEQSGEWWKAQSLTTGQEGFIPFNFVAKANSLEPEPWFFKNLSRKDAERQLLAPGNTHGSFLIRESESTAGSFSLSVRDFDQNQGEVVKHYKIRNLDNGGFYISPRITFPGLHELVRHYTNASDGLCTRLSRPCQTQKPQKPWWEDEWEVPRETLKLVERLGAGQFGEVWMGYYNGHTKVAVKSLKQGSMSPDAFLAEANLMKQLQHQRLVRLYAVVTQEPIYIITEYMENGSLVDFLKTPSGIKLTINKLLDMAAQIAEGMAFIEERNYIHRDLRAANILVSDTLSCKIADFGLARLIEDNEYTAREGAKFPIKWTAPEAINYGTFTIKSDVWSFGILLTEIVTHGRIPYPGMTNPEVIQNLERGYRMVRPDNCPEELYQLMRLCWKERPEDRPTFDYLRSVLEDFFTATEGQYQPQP
ASSAY_NOTES: Inhibition of a panel of kinases, in vitro HotSpot kinase assay: LCK
Format: biochemical
EXPERIMENTAL_CONTEXT: Table 11, Formula B-I; 1 μM ATP; read-out: LCK (IC50)
READOUT: IC50

Please state recorded IC50 (tested on LCK (Homo sapiens, UniProt P06239)) of CN1CCN(C(=O)c2ccc(Nc3nc(N[C@H]4CC[C@@H](NC(=O)N(C)C)CC4)cnc3C(N)=O)cc2)CC1 [Example B-16]
< 100 nM

Queued: CN1CCN(C(=O)c2ccc(Nc3nc(NC4CCC(NC(=O)N(C)C)CC4)cnc3C(N)=O)cc2)CC1 (stereo not drawn) [Example B-13]
< 100 nM

Then what about the compound Cc1cc(Nc2nc(NC3CCC(NC(=O)c4ccc(N(C)C)cc4)CC3)cnc2C(N)=O)sn1 (stereo not drawn) [Example B-5] ?
100 to 1000 nM

And what about the compound Cc1cc(Nc2nc(N[C@H]3CC[C@H](NC(=O)c4ccc(N(C)C)cc4)CC3)cnc2C(N)=O)sn1 [Example B-1] ?
< 100 nM

And what about the compound CN1CCN(C(=O)c2ccc(Nc3nc(NC4CCC(NC(=O)c5ccc(C6CC6)cc5F)CC4)cnc3C(N)=O)cc2)CC1 (stereo not drawn) [Example B-15] ?
< 100 nM

Same for CN1CCN(C(=O)c2ccc(Nc3nc(N[C@H]4CC[C@H](NC(=O)c5ccc(C6CC6)cc5F)CC4)cnc3C(N)=O)cc2)CC1 [Example B-14]
100 to 1000 nM
